Test system: Staphylococcus epidermidis
Assay: Antibacterial activity against methicillin-resistant Staphylococcus epidermidis ATCC 35984 after 16 to 18 hrs by broth microdilution method
Assay type: functional
Output yes (1) for records whose MIC is lower than 3 µM, no (0) for records at or above 3 µM.

Previously resolved entries follow.
# Compound String, Group Label
records = [
    ("Cc1cnc2c(O)c(Br)cc(Br)c2c1", "yes (1)"),
    ("Cc1nc2c(O)c(Br)cc(Br)c2cc1C(=O)NCc1ccccc1", "no (0)"),
    ("Cc1nc2c(O)c(Br)cc(Br)c2cc1C(=O)c1ccccc1", "no (0)"),
    ("CCCNC(=O)c1cc2c(Br)cc(Br)c(O)c2nc1C", "no (0)"),
]

Please determine if "CCCCCCCCCCCC[N+](C)(C)CC[N+](C)(C)CC[N+](C)(C)CCCCCCCCCCCC" is below 3 µM in terms of MIC.
yes (1)

---

Tested on: Staphylococcus epidermidis
Experiment: Antibacterial activity against methicillin-resistant Staphylococcus epidermidis ATCC 35984 after 16 to 18 hrs by broth microdilution method
Assay type: functional
MIC values, listed per item
Expressed in µM, but write only the number.

For orientation, consider the following solved cases.
# Compound String, System Under Test, MIC, µM
records = [
    ("Cc1nc2c(O)c(Br)cc(Br)c2cc1C(=O)O/C(=N\\C1CCCCC1)NC1CCCCC1", "Staphylococcus epidermidis", 1.56),
    ("Cc1nc2c(O)c(Br)cc(Br)c2cc1C(=O)OCc1ccccc1", "Staphylococcus epidermidis", 0.1),
    ("CC(=O)c1cc2c(Br)cc(Br)c(O)c2nc1C", "Staphylococcus epidermidis", 6.25),
    ("Cc1ccc2c(Br)cc(Br)c(O)c2n1", "Staphylococcus epidermidis", 0.2),
    ("Oc1c(Br)cc(Br)c2cc(Cc3ccccc3)cnc12", "Staphylococcus epidermidis", 3.13),
]

In the following, a different compound is considered.
// lookup MIC for "CCc1cnc2c(O)c(Br)cc(Br)c2c1"
0.59

---

hemolysis at 1 h, 200 µM values, listed per item
Assay: Hemolytic activity in human RBC at 200 uM after 1 hr relative to control
Assay type: ADME, cell-based, Erythrocyte
Conditions: red blood cells (erythrocytes), read-out: Activity
Expressed in %, but write only the number.

For orientation, consider the following solved cases.
# Compound String, Measure Unit, Recorded Number
records = [
    ("CCCNC(=O)c1cc2c(Br)cc(Br)c(O)c2nc1C", "%", 7),
    ("Cc1nc2c(O)c(Br)cc(Br)c2cc1C(=O)NCc1ccccc1", "%", 13),
    ("Oc1c(Br)cc(Br)c2cc(Cc3ccccc3)cnc12", "%", 4.6),
    ("CCc1cnc2c(O)c(Br)cc(Br)c2c1", "%", 2.4),
    ("COC(=O)c1cc2c(Br)cc(Br)c(O)c2nc1C", "%", 1.5),
    ("Oc1c(Br)cc(Br)c2ccc(-c3ccccc3)nc12", "%", 1.9),
    ("Cc1nc2c(O)c(Br)cc(Br)c2cc1C(=O)OCc1ccccc1", "%", 7.9),
    ("Cc1nc2c(O)c(Br)cc(Br)c2cc1C(=O)c1ccccc1", "%", 2.5),
]

// lookup hemolysis at 1 h, 200 µM for "CCOC(=O)c1cc2c(Br)cc(Br)c(O)c2nc1C"
2.2

Same question, "Cc1nc2c(O)c(Br)cc(Br)c2cc1C(=O)O" this time
2.5

Same question, "CC(=O)c1cc2c(Br)cc(Br)c(O)c2nc1C" this time
2.3
